The reported numbers originate from patent US20230110378A1.

Test: Pharmacokinetic evaluation of compounds in mice (tail vein injection)
Format: in vivo, Male CD-1 (ICR) mice
Details: CD-1 (ICR), mouse; male CD-1 mice, intravenous injection, dose 5 mg/kg, plasma; read-out: T½ (converted)
QUANTITY KIND: half-life (min)
The reply should contain only the number, in min.

Look at this compound and give its reported half-life. CC(C)(O/N=C(\C(=O)N[C@@H]1C(=O)N(S(=O)(=O)O)[C@@H]1CNC(=O)c1cc([C@@H]2CCN(C(=O)c3cc(=O)c(O)cn3O)C2)no1)c1csc(N)n1)C(=O)O [Compound I-7]
16.2

---

Quick record of MIC values for Escherichia coli HDBEC 30008.

{"columns": ["MOLECULE", "OBSERVED RESULT"],
 "data": [
  ["CC(C)(O/N=C(\\C(=O)N[C@@H]1C(=O)N(S(=O)(=O)O)[C@@H]1CNC(=O)c1cnc([C@@H]2CCN(CCNC(=O)c3ccc(O)c(O)c3Cl)C2)s1)c1csc(N)n1)C(=O)O [Compound I-41]", "< 4 µg/mL"],
  ["C[n+]1cc(-c2ncc(C(=O)NC[C@@H]3[C@H](NC(=O)/C(=N\\OC4(C(=O)O)CC4)c4csc(N)n4)C(=O)N3S(=O)(=O)O)s2)cn1CCCNC(=O)c1ccc(O)c(O)c1Cl [Compound I-28]", "< 4 µg/mL"],
  ["C[n+]1cc(-c2ncc(C(=O)NC[C@@H]3[C@H](NC(=O)/C(=N\\OC(C)(C)C(=O)O)c4nsc(N)n4)C(=O)N3S(=O)(=O)O)s2)cn1CC(N)CN (stereo partly drawn) [Compound I-15]", "4 to 8 µg/mL"],
  ["CC(C)(O/N=C(\\C(=O)N[C@@H]1C(=O)N(S(=O)(=O)O)[C@@H]1CNC(=O)c1cc([C@@H]2CCNC2)no1)c1csc(N)n1)C(=O)O [Compound I-5]", "< 4 µg/mL"]
]}

Entry Cc1c(O)c(=O)cc(C(=O)N2CC[C@@H](c3cc(C(=O)NC[C@@H]4[C@H](NC(=O)/C(=N\OC(C)(C)C(=O)O)c5csc(N)n5)C(=O)N4S(=O)(=O)O)on3)C2)n1O [Compound I-43] , system Escherichia coli HDBEC 30008: what MIC was measured?
< 4 µg/mL

Entry C[n+]1cc(-c2cc(C(=O)NC[C@@H]3[C@H](NC(=O)/C(=N\OC(C)(C)C(=O)O)c4csc(N)n4)C(=O)N3S(=O)(=O)O)on2)cn1CCCN [Compound I-1] , system Escherichia coli HDBEC 30008: what MIC was measured?
4 to 8 µg/mL

Entry CC(C)(O/N=C(\C(=O)N[C@@H]1C(=O)N(S(=O)(=O)O)[C@@H]1CNC(=O)c1cc([C@@H]2CCN(CCNc3ccc(O)c(O)c3Cl)C2)no1)c1csc(N)n1)C(=O)O [Compound I-36] , system Escherichia coli HDBEC 30008: what MIC was measured?
< 4 µg/mL

Entry Cc1c(C(=O)NCCN2CC[C@@H](c3cc(C(=O)NC[C@@H]4[C@H](NC(=O)/C(=N\OC(C)(C)C(=O)O)c5csc(N)n5)C(=O)N4S(=O)(=O)O)on3)C2)n(O)c(C)c(O)c1=O [Compound I-45] , system Escherichia coli HDBEC 30008: what MIC was measured?
< 4 µg/mL

Entry CC(C)(O/N=C(\C(=O)N[C@@H]1C(=O)N(S(=O)(=O)O)[C@@H]1CNC(=O)c1cc([C@@H]2CCN(CCNC(=O)c3cc(=O)c(O)c[nH]3)C2)no1)c1csc(N)n1)C(=O)O [Compound I-39] , system Escherichia coli HDBEC 30008: what MIC was measured?
< 4 µg/mL

Entry C[n+]1cc(C(=O)NC[C@@H]2[C@H](NC(=O)/C(=N\OC(C)(C)C(=O)O)c3csc(N)n3)C(=O)N2S(=O)(=O)O)sc1-c1cnn(CC(N)CN)c1 (stereo partly drawn) [Compound I-13] , system Escherichia coli HDBEC 30008: what MIC was measured?
8 to 16 µg/mL

Entry CC(C)(O/N=C(\C(=O)N[C@@H]1C(=O)N(S(=O)(=O)O)[C@@H]1CNC(=O)c1cc([C@@H]2CCN(C(=O)c3cc(=O)c(O)cn3O)C2)no1)c1nsc(N)n1)C(=O)O [Compound I-14] , system Escherichia coli HDBEC 30008: what MIC was measured?
< 4 µg/mL

Entry CC(C)(O/N=C(\C(=O)N[C@@H]1C(=O)N(S(=O)(=O)O)[C@@H]1CNC(=O)c1cc([C@@H]2CCN(C(=O)c3ccc(O)c(O)c3Cl)C2)no1)c1csc(N)n1)C(=O)O [Compound I-27] , system Escherichia coli HDBEC 30008: what MIC was measured?
< 4 µg/mL

Entry CC(C)(O/N=C(\C(=O)N[C@H]1C(=O)N(S(=O)(=O)O)[C@H]1CNC(=O)c1cc([C@@H]2CCN(C(=O)c3ccc(O)c(O)c3Cl)C2)no1)c1csc(N)n1)C(=O)O [Compound I-18] , system Escherichia coli HDBEC 30008: what MIC was measured?
< 4 µg/mL
